Attribution: the supplement of paper PMC8387472

tested on: mESC LDLR-Dup GFP reporter (SpCas9 MH-deletion repair); assay: fraction of GFP+ cells relative to DMSO control (fold change); higher = more MH-deletion repair to in-frame LDLR (or more editing); conditions: 2 µM; 7 days post-transfection
Structures can show the parent of a compound that is named as a salt.
metricName: fraction of GFP+ cells

[[record]]
compound = "CCn1cc(C(=O)O)c(=O)c2cc3c(cc21)OCO3"
number = 0.941

[[record]]
compound = "O=C(O)CCCc1ccc(N(CCCl)CCCl)cc1"
number = 2.44

[[record]]
compound = "Cc1cc(SCc2sc(-c3ccc(C(F)(F)F)c(F)c3)nc2C)ccc1OCC(=O)O"
number = 1.72

[[record]]
compound = "CCN1CCN(C(=O)Cc2ccc(Nc3ncc(F)c(Nc4ccc(C(=O)Nc5ccccc5Cl)cc4)n3)cc2)CC1"
number = 0.548

[[record]]
compound = "COc1ccc2c(c1)[nH]c1c(C)nccc12 [harmine hydrochloride]"
number = 1.1

[[record]]
compound = "COc1ccc2c(c1)/C(=C/c1cnc[nH]1)C(=O)N2"
number = 1.29

[[record]]
compound = "O=P1(NCCCl)OCCCN1CCCl (stereo not given) [Ifosfamide]"
number = 1.11

[[record]]
compound = "C/C=C(\\C)C(=O)N[C@@H](c1ccccc1)[C@@H](O)C(=O)O[C@H]1C[C@@]2(O)[C@@H](OC(=O)c3ccccc3)[C@@H]3[C@]4(OC(C)=O)CO[C@@H]4C[C@H](O)[C@@]3(C)C(=O)[C@H](OC(C)=O)C(=C1C)C2(C)C"
number = 1.54

[[record]]
compound = "Cn1c(CCCC(=O)O)nc2cc(N(CCCl)CCCl)ccc21 [Bendamustine HCl]"
number = 1.26

[[record]]
compound = "COC[C@H]1OC(=O)c2coc3c2[C@@]1(C)C1=C(C3=O)[C@@H]2CCC(=O)[C@@]2(C)C[C@H]1OC(C)=O"
number = 0.685

